# System: Panicum
# protocolNotes: Post-emergence herbicidal action
# Type: in vivo
# testConditions: 250 g a.i./ha (500 litres water/ha), sprayed at 4- to 6-leaf stage, evaluated after about 18 days; scale of nine ratings, 1 to 4 = good to very good action
recordedEndpoint: Post-emergence action, rating, Panicum
Lab note: write the figure by itself, no unit.

Exercise: Look at this molecule and give its reported Post-emergence action, rating, Panicum. CSC1=C(C(=O)c2ccc(C(F)(F)F)nc2C)C(=NS(=O)(=O)c2ccccc2)C(C)(C)C(=O)C1(C)C [1.079]
Solution: 2

Exercise: Look at this molecule and give its reported Post-emergence action, rating, Panicum. C=CS(=O)(=O)N=C1C(C(=O)c2ccc(C(F)(F)F)nc2C)=C(Cl)C(C)(C)C(=O)C1(C)C [1.028]
Solution: 1

Exercise: Look at this molecule and give its reported Post-emergence action, rating, Panicum. CSC1=C(C(=O)c2ccc(C(F)(F)F)nc2C)C(=NS(=O)(=O)c2cccnc2F)C(C)(C)C(=O)C1(C)C [1.078]
Solution: 1

Exercise: Look at this molecule and give its reported Post-emergence action, rating, Panicum. Cc1nc(C(F)(F)F)ccc1C(=O)C1=C(Cl)C(C)(C)C(=O)C(C)(C)C1=NS(C)(=O)=O [1.001]
Solution: 1

Exercise: Look at this molecule and give its reported Post-emergence action, rating, Panicum. Cc1nc(C(F)(F)F)ccc1C(=O)C1=C(Cl)C(C)(C)C(=O)C(C)(C)C1=NS(=O)(=O)c1cccnc1F [1.026]
Solution: 1

Exercise: Look at this molecule and give its reported Post-emergence action, rating, Panicum. Cc1nc(C(F)(F)F)ccc1C(=O)C1=C(Cl)C(C)(C)C(=O)C(C)(C)C1=NS(=O)(=O)c1ccccc1 [1.027]
Solution: 2

* * *

# Test system: Amarantus
# protocolNotes: Post-emergence herbicidal action
# Type: in vivo
# testConditions: 250 g a.i./ha (500 litres water/ha), sprayed at 4- to 6-leaf stage, evaluated after about 18 days; scale of nine ratings, 1 to 4 = good to very good action
recordedEndpoint: Post-emergence action, rating, Amarantus
Lab note: write the figure by itself, no unit.

molecule | Post-emergence action, rating, Amarantus
Cc1nc(C(F)(F)F)ccc1C(=O)C1=C(Cl)C(C)(C)C(=O)C(C)(C)C1=NS(C)(=O)=O [1.001] | 2
CSC1=C(C(=O)c2ccc(C(F)(F)F)nc2C)C(=NS(=O)(=O)c2cccnc2F)C(C)(C)C(=O)C1(C)C [1.078] | 2
Cc1nc(C(F)(F)F)ccc1C(=O)C1=C(Cl)C(C)(C)C(=O)C(C)(C)C1=NS(=O)(=O)c1ccccc1 [1.027] | 2
CSC1=C(C(=O)c2ccc(C(F)(F)F)nc2C)C(=NS(=O)(=O)c2ccccc2)C(C)(C)C(=O)C1(C)C [1.079] | 2
Cc1nc(C(F)(F)F)ccc1C(=O)C1=C(Cl)C(C)(C)C(=O)C(C)(C)C1=NS(=O)(=O)c1cccnc1F [1.026] | 1

Let's switch to this molecule now.
Exercise: Look at this molecule and give its reported Post-emergence action, rating, Amarantus. C=CS(=O)(=O)N=C1C(C(=O)c2ccc(C(F)(F)F)nc2C)=C(Cl)C(C)(C)C(=O)C1(C)C [1.028]
Solution: 2
